Exercise: state measured melting point for each of the molecules provided.

Request: Dear colleague, I am looking for the recorded melting point of the following molecule: COc1cccc(C(=O)OCC[S+]([O-])c2ccnc3cc(Cl)ccc23)c1OC (stereo not drawn) [Compound 43]
Response: 110 °C

Request: Dear colleague, I am looking for the recorded melting point of the following molecule: COc1cc(OC)cc(C(=O)OCCCSc2ccnc3cc(Cl)ccc23)c1 [Compound 27]
Response: 148 °C

Request: Dear colleague, I am looking for the recorded melting point of the following molecule: COc1ccc(C(=O)OCCSc2ccnc3cc(Cl)ccc23)cc1[N+](=O)[O-] [Compound 17]
Response: 171 to 173 °C

Request: Dear colleague, I am looking for the recorded melting point of the following molecule: COc1cc(C(=O)OCC[S+]([O-])c2ccnc3cc(Cl)ccc23)cc(OC)c1OC (stereo not drawn) [Compound 46]
Response: 144 to 146 °C

Request: Dear colleague, I am looking for the recorded melting point of the following molecule: Cc1cc(C)cc(C(=O)OCCSc2ccnc3cc(Cl)ccc23)c1 [Compound 19]
Response: 102 to 104 °C

Request: Dear colleague, I am looking for the recorded melting point of the following molecule: COc1ccc(C(=O)OCCCSc2ccnc3cc(Cl)ccc23)cc1 [Compound 23]
Response: 106 to 108 °C

Request: Dear colleague, I am looking for the recorded melting point of the following molecule: Cc1cc(C)cc(C(=O)OCCCSc2ccnc3cc(Cl)ccc23)c1 [Compound 37]
Response: 136 to 138 °C

Request: Dear colleague, I am looking for the recorded melting point of the following molecule: COc1ccccc1C(=O)OCCSc1ccnc2cc(Cl)ccc12 [Compound 22]
Response: 98 to 99 °C

Request: Dear colleague, I am looking for the recorded melting point of the following molecule: COc1ccc(C(=O)OCC[S+]([O-])c2ccnc3cc(Cl)ccc23)cc1 (stereo not drawn) [Compound 42]
Response: 126 to 128 °C

Provenance of the data: paper PMC9607427
